The measurements presented in this section are drawn from patent US20250326839A1.

Biological target: T1, human TREM2 (human, UniProt Q9NZC2 19-174, limits assumed)
T1 construct: also called triggering receptor expressed on myeloid cells 2
T1 sequence: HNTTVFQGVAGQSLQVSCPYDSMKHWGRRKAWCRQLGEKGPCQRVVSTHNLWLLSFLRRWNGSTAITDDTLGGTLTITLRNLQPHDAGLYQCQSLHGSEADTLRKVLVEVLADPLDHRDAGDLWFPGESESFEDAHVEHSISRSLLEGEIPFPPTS
Assay: 2nd screen, 100 nM
PARAMETER: Binding Signal

Solved cases below.
[[record]]
binder = "V54 (antibody, V domains shown, also called 6E7 variant V54) VH: EVQLVQSGAEVKKPGESLKISCKGSGYSFTSQWIAWVRQMPGKGLEWMGIIYPGDSDTRYSPSFQGQVTISADKSISTAYLQWSSLKASDTAMYFCARQRTFYYDSSDYFDYWGQGTLVTVSS VL: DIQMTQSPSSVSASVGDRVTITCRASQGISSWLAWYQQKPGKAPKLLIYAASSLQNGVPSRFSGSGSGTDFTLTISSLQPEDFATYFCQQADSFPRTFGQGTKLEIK"
parameter = "Binding Signal"
result = "0.54 fold over 6E7 parental antibody"

[[record]]
binder = "V93 (antibody, V domains shown, also called 6E7 variant V93) VH: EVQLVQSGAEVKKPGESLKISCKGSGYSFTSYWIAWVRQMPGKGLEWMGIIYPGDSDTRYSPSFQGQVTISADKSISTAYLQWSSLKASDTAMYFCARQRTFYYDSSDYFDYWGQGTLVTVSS VL: DIQMTQSPSSVSASVGDRVTITCRASQGISGWLAWYQQKPGKAPKLLIYAASSLQNGVPSRFSGSGSGTDFTLTISSLQPEDFATYFCQQADSFPRTFGQGTKLEIK"
parameter = "Binding Signal"
result = "1.05 fold over 6E7 parental antibody"


Prompt line: # return recorded Binding Signal for input V58 (antibody, V domains shown, also called 6E7 variant V58) VH: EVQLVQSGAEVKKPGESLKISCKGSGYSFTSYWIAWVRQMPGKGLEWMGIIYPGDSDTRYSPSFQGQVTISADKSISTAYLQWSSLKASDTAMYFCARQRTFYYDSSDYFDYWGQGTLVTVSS VL: DIQMTQSPSSVSASVGDRVTITCRASQGISSWLAWYQQKPGKAPKLLIYKASSLQNGVPSRFSGSGSGTDFTLTISSLQPEDFATYFCQQADSFPRTFGQGTKLEIK
Response line: 0.68 fold over 6E7 parental antibody
